Molecular target: T1, recombinant human IL4Rα-his protein (in house made) (human, UniProt P24394 26-232, limits assumed)
T1 construct: also called Human IL4Ra-his
Test: SPR (Biacore), antibody captured, IL4Rα-his flowed
property.label: koff

Exam item: Give the measured koff of huB8G11F2B7G5E8-V5 (antibody, human IgG4 S228P, kappa, V domains shown, Humanized, human IgG4/kappa; also called huBSG11F2B7G5E8-V5) VH: EVQLVQSGAEVKKPGATVKISCKASGFNIKDTYMHWVKQAPGKGLEWVGRIDPTNGYTIYASKFQGRATITADTSSNTAYMELSSLRSEDTAVYHCVSRRPWFAYWGQGTLVTVSS VL: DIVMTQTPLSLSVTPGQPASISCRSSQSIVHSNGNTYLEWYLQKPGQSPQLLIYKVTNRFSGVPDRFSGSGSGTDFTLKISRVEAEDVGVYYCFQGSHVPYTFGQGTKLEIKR .
Marked response: 0.00241 s⁻¹
